Exercise: state measured log10 of EC50 for each of the compounds provided.
- assayedSystem: ΔF508-CFTR (Homo sapiens, UniProt P13569, DEL508-508)
- Construct: host or cells: CFBE41o-, doxycycline-inducible
- Sequence (P13569 with tags, fused parts or gaps DEL508-508): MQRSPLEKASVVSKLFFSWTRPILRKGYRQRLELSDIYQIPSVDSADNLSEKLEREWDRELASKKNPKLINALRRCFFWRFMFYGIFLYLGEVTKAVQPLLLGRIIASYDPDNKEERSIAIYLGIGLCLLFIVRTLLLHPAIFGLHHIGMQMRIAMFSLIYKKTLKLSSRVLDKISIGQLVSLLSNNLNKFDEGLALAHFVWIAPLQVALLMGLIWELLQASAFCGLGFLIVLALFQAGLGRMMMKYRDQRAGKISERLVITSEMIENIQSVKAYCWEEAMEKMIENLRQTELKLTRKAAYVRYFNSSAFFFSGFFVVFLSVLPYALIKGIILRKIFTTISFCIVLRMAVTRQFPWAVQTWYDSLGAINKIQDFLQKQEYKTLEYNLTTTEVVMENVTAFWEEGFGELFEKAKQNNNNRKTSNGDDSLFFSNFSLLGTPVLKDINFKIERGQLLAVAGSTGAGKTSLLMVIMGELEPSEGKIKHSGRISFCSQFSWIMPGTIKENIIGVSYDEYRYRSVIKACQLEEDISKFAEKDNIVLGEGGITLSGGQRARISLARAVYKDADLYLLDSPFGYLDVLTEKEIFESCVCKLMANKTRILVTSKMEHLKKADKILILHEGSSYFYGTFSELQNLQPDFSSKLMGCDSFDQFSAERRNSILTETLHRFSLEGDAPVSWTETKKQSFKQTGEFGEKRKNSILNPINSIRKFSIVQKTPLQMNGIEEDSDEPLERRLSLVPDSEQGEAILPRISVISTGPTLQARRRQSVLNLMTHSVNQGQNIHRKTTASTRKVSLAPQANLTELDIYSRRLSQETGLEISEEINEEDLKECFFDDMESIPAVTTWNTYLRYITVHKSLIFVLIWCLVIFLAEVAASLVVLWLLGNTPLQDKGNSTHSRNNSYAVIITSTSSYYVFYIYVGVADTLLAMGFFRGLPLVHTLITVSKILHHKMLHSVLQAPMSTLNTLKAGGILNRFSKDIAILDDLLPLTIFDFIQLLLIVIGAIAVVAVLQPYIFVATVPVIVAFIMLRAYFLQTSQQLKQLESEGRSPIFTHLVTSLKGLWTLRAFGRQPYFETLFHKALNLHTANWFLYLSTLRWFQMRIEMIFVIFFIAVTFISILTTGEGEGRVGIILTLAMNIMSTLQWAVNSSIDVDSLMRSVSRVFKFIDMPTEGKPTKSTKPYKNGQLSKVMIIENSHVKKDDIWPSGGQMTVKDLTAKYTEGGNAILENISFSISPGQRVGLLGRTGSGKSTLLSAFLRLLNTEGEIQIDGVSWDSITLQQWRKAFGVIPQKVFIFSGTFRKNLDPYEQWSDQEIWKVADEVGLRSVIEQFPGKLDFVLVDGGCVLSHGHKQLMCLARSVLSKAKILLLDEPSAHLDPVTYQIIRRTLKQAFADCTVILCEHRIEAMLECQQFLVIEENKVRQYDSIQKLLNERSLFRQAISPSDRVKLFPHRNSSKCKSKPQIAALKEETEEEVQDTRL
- measurementProtocol: CFTR cell surface levels using HRP-tagged ΔF508-CFTR expressing CFBE cells, intrinsic corrector capacity
- Type: cell-based
- measurementSetup: HRP-tagged ΔF508-CFTR expressing CFBE41o- cells; compound alone (intrinsic corrector capacity); 20 hours at 33° C.; read-out: EC50
Please keep in mind that the values are log10 of EC50 expressed in nM.

Solved cases below.
CC(C)c1nn(-c2cccc(N(C)C)c2)c2nc(C(=O)NS(C)(=O)=O)cc(OCC3CCOCC3)c12 [Compound 278]: 2.08
COCCC1CCN(c2cc(C(=O)NS(C)(=O)=O)nc3c2c(C(C)C)nn3-c2cccc(C)c2)CC1 [Compound 161]: 2.86
CCOC(=O)N1CCC(c2cc(C(=O)NS(=O)(=O)N(C)C)nc3c2c(C(C)C)nn3-c2ccc(F)cc2)CC1 [Compound 497]: 2.61
CC1(S(=O)(=O)NC(=O)c2cc(N3CCC(CN4CCCC4)CC3)c3c(C4CCC4)nn(-c4ccccc4)c3n2)CC1 [Compound 461]: 2.32
CN(C)S(=O)(=O)NC(=O)c1cc(N2CCC3C(CCN3C3COC3)C2)c2c(C3CCC3)nn(-c3ccc(F)cc3)c2n1 (centres unmarked) [Compound 627]: 1.92
COC1CCN(c2cc(C(=O)NS(=O)(=O)CCNC(=O)c3ccccc3C(=O)O)nc3c2c(C2CCC2)nn3-c2ccccc2)CC1 [Compound 174]: 2.88
CC(C)c1nn(-c2cccc(N(C)C)c2)c2nc(C(=O)NS(C)(=O)=O)cc(-c3ccc(N(C)C4CCOCC4)cc3)c12 [Compound 96]: 2.56
CC(C)c1nn(-c2ccccc2)c2nc(C(=O)NS(C)(=O)=O)cc(-c3ccc(N(C)C)cc3)c12 [Compound 7]: 2.80
Cc1nn(-c2cc(F)cc(F)c2)c2nc(C(=O)NS(C)(=O)=O)cc(-c3ccc(N4CCOCC4)cc3)c12 [Compound 23]: 2.95
CS(=O)(=O)NC(=O)c1cc(N2CCC(N3CCOCC3)CC2)c2c(C3CCC3)nn(-c3ccnc(C4CCOCC4)c3)c2n1 [Compound 490]: 3.19

// input: 4 compounds below; output: log10 of EC50 for each
1. CCS(=O)(=O)NC(=O)c1cc(-c2cnc(N(C)C)nc2)c2c(C)nn(C3CCCCC3)c2n1 [Compound 50]
2. CCS(=O)(=O)NC(=O)c1cc(-c2ccc(N3CCOCC3)cc2)c2c(C)nn(-c3cc(C)cc(C)c3)c2n1 [Compound 115]
3. COC1CCN(c2cc(C(=O)NS(=O)(=O)CC(F)(F)F)nc3c2c(C2CCC2)nn3-c2ccccc2)CC1 [Compound 176]
4. CCOC(=O)N1CCC(NS(=O)(=O)NC(=O)c2cc(OCC3CCOCC3)c3c(C4CCC4)nn(-c4ccccc4)c3n2)CC1 [Compound 356]

3.23
3.02
2.53
2.02

====

Exercise: state measured pEC50 for each of the molecules provided.
- assayedSystem: ΔF508-CFTR (Homo sapiens, UniProt P13569, DEL508-508)
- Construct: host or cells: CFBE41o-, doxycycline-inducible
- measurementProtocol: CFTR cell surface levels using HRP-tagged ΔF508-CFTR expressing CFBE cells, intrinsic corrector capacity
- Type: cell-based
- measurementSetup: HRP-tagged ΔF508-CFTR expressing CFBE41o- cells; compound alone (intrinsic corrector capacity); 20 hours at 33° C.; read-out: EC50
Numbers only, as −log10 of the molar value.

Cc1cccc(-n2nc(C(C)C)c3c(N4CCC(CF)CC4)cc(C(=O)NS(C)(=O)=O)nc32)c1 [Compound 164]: 6.23
O=C(NS(=O)(=O)C1CC1)c1cc(OCC2CCOCC2)c2c(C3CCC3)nn(-c3ccccc3)c2n1 [Compound 333]: 7.08
CC1CN(c2ccc(-c3cc(C(=O)NS(C)(=O)=O)nc4c3c(C(C)C)nn4C3CCCCC3)cn2)CC(C)O1 (stereo not drawn) [Compound 93]: 6.30
COc1ccc(-c2cc(C(=O)NS(C)(=O)=O)nc3c2c(C)nn3-c2ccccc2)cc1 [Compound 14]: 5.84
CCCCOC1CCN(c2cc(C(=O)NS(C)(=O)=O)nc3c2c(C(C)C)nn3-c2ccc(F)cc2)CC1 [Compound 172]: 6.48

// input: 5 molecules below; output: pEC50 for each
1. COCC1(OC)CCN(c2cc(C(=O)NS(C)(=O)=O)nc3c2c(C2CCC2)nn3-c2ccccc2)CC1 [Compound 247]
2. COCC1CCN(c2cc(C(=O)NS(=O)(=O)CCCN3CCCC3)nc3c2c(C(C)C)nn3-c2ccc(F)cc2)CC1 [Compound 291]
3. COC1CCN(C2CCN(c3cc(C(=O)NS(N)(=O)=O)nc4c3c(C3CCC3)nn4-c3ccc(F)cc3)CC2)CC1 [Compound 630]
4. CN(C)S(=O)(=O)NC(=O)c1cc(N2CCC(N3CCOCC3)CC2)c2c(C3CCC3)nn(-c3cccc(OC(F)F)c3)c2n1 [Compound 652]
5. COCC1CCN(c2cc(C(=O)NS(=O)(=O)N3CCC(N4CCC[C@H]4COC)CC3)nc3c2c(C2CCC2)nn3-c2ccccc2)CC1 [Compound 390]

1. 6.34
2. 5.48
3. 6.13
4. 7.08
5. 6.75

// input: 4 molecules below; output: pEC50 for each
1. CN(C)S(=O)(=O)NC(=O)c1cc(N2CCC(CCN3CCOCC3)CC2)c2c(C3CCC3)nn(C3CCCCC3)c2n1 [Compound 425]
2. CS(=O)(=O)NC(=O)c1cc(N2CCC(N3CCCC(F)C3)CC2)c2c(C3CCC3)nn(-c3ccc(F)cc3)c2n1 (stereo not drawn) [Compound 567]
3. COCCS(=O)(=O)NC(=O)c1cc(N2CCC(N3CCOCC3)CC2)c2c(C3CCC3)nn(C3CCCCC3)c2n1 [Compound 419]
4. CCS(=O)(=O)NC(=O)c1cc(-c2ccc(OC)cc2)c2c(C)nn(-c3ccc(C)c(Cl)c3)c2n1 [Compound 114]

1. 6.56
2. 6.86
3. 6.35
4. 5.94

I have this molecule here, CN(C)S(=O)(=O)NC(=O)c1cc(N2CCC(N3CCCC(C(F)(F)F)C3)CC2)c2c(C3CCC3)nn(-c3ccc(F)cc3)c2n1 (stereo not drawn) [Compound 571] , and I need its recorded pEC50. 6.89

====

Exercise: state measured % Activation for each of the compounds provided.
- assayedSystem: ΔF508-CFTR (Homo sapiens, UniProt P13569, DEL508-508)
- Construct: host or cells: CFBE41o-, doxycycline-inducible
- measurementProtocol: CFTR cell surface levels using HRP-tagged ΔF508-CFTR expressing CFBE cells, in the presence of a co-corrector
- Format: cell-based
- measurementSetup: HRP-tagged ΔF508-CFTR CFBE cells, in the presence of 3 μM co-corrector
Answers are plain numbers, in %.

Solved cases below.
Cc1cccc(-n2nc(C(C)C)c3c(N4CCCCC4)cc(C(=O)NS(C)(=O)=O)nc32)c1 [Compound 101]: 455.4
COC1CCN(c2cc(C(=O)NS(C)(=O)=O)nc3c2c(C(C)C)nn3-c2ccnc(N3CCCC3)c2)CC1 [Compound 188]: 405.37
CC(C)c1nn(-c2cccc(N3CC(O)C3)c2)c2nc(C(=O)NS(C)(=O)=O)cc(-c3ccc(N4CCOCC4)cc3)c12 [Compound 105]: 457.85
COCCS(=O)(=O)NC(=O)c1cc(-c2ccc(N3CCOCC3)cc2)c2cnn(-c3ccccc3)c2n1 [Compound 233]: 206.57
CN(C)S(=O)(=O)NC(=O)c1cc(N2CCC3(CC2)CCN(C2COC2)CC3)c2c(C3CCC3)nn(-c3ccc(F)cc3)c2n1 [Compound 614]: 381.35

// input: 5 compounds below; output: % Activation for each
1. CS(=O)(=O)NC(=O)c1cc(OCC2CCC(F)(F)C2)c2c(C3CCC3)nn(-c3ccccc3)c2n1 (stereo not shown) [Compound 238]
2. CS(=O)(=O)NC(=O)c1cc(N2CCC(CF)CC2)c2c(C3CCC3)nn(-c3ccccc3)c2n1 [Compound 220]
3. COc1cccc(-n2nc(C3CCC3)c3c(N4CCC(N5CCOCC5)CC4)cc(C(=O)NS(=O)(=O)N(C)C)nc32)c1 [Compound 499]
4. CC1(S(=O)(=O)NC(=O)c2cc(N3CCC(N4CCOCC4)CC3)c3c(C4CCC4)nn(-c4ccccc4)c3n2)CC1 [Compound 435]
5. CC(C)c1nn(C2CCCCC2)c2nc(C(=O)NS(C)(=O)=O)cc(-c3cnc(N4CCOCC4)nc3)c12 [Compound 11]

[347.55, 389.9, 439.6, 474.8, 381.33]
